SYSTEM: NADPH oxidase 4 (Homo sapiens) (UniProt Q9NPH5)
Sequence (Q9NPH5 whole entry, looked up): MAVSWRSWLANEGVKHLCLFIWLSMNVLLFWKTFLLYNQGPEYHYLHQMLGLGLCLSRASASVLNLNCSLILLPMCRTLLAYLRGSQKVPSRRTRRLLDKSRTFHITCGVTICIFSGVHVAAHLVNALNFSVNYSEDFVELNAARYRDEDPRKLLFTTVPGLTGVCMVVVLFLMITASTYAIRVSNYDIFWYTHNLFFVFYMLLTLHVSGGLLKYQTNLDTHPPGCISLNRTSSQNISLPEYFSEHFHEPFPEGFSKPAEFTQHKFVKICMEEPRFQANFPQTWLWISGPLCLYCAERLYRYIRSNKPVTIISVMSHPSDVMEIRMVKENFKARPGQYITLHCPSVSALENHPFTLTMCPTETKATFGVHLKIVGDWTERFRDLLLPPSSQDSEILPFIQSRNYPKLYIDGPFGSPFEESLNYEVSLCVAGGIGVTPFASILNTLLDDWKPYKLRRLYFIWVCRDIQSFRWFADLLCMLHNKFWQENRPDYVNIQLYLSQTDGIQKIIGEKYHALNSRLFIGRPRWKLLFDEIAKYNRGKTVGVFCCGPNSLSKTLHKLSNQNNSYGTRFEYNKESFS
EXPERIMENT: NOX4-dependent H2O2 signal modulators, primary screen, NOX inhibitor project, cell-based, HEK293-NOX4, tetracycline-induced, Amplex Red fluorescence (AID 1160)
CONDITION NOTES: 45 min, higher = more signal, called active from +8 up or from −8 down
Calls of active or inactive are those of the source.
Listed here are compounds together with their documented z-score.

Known results for compounds:
{"COMPOUND": "C=C(C(=O)CC[C@H](OC(=O)c1cccnc1)c1ccc(CO)o1)C(C)C", "z-score": "0.123 (inactive)"}
{"COMPOUND": "CC(C)N1CC=CC23O[C@@H]4C=CCOC(=O)[C@@H]4[C@H]2C(=O)N(C(C)CO)[C@@H]3C1=O (stereo partly drawn)", "z-score": "0.266 (inactive)"}
{"COMPOUND": "CC(C)C(O)C1C=CC2C(=O)N(C)C(=O)C2N1N(c1ccccc1)c1ccccc1 (stereo not drawn)", "z-score": "-0.583 (inactive)"}
{"COMPOUND": "NC(=O)NCC#Cc1ccc2c(c1)[C@]1(C(=O)N2)[C@H](C(=O)Nc2nc3ccccc3s2)[C@H]2C(=O)O[C@H](c3ccccc3)[C@H](c3ccccc3)N2[C@@H]1c1ccc(O)cc1", "z-score": "-1.27 (inactive)"}
{"COMPOUND": "C=CCN1C(=O)[C@]2(CC=C)N=C(c3ccc(OCCCO)cc3)O[C@@H]2c2ccccc21", "z-score": "1.08 (inactive)"}

Query string: Given the entry COC(=O)[C@@]1(Cc2ccccc2)[C@H]2c3cc(C(=O)N4CCCC4)n(Cc4ccsc4Br)c3C[C@H]2CN1C(=O)c1ccccc1 , report its measured z-score.
Result string: 0.707 (inactive)

Query string: Given the entry CCOC(=O)C1=C[C@@H](c2ccccc2)N(S(=O)(=O)c2ccc(C)cc2)[C@H]1c1cccc(Cl)c1 , report its measured z-score.
Result string: -0.143 (inactive)

Query string: Given the entry O=C(N1CCCCC1)[C@@]1(Cc2ccccc2)COC(c2ccc(OCCCO)cc2)=N1 , report its measured z-score.
Result string: -0.936 (inactive)
